System: MILI (PIWIL2) piRISC loaded with L1MC piRNA (26 nt);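 further: 1 nM active piRISC with 0.1 nM target library at 33 °C single turnover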
assay-method-text: pre-steady-state target cleavage rate (min^-1); guide: L1MC piRNA 5'p-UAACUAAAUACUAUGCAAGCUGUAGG; MIWI and MILI are mouse PIWI proteins and EfPiwi is from a freshwater sponge; tags in brackets are library labels; higher = faster piRNA-guided slicing of the target
study-conditions: auxiliary factor: 500 nM mouse GTSF1
Lab note: anything with pre-steady-state target cleavage rate at or over 0.2 counts as Fulfilled; the rest go in Not fulfilled.

Worked set:
UCCUCCUACAGCUUGCAUAGUAUUUUGUAA; Not fulfilled
UCCUGGAUCAGCUUCAUAGUAUUUAGUUA; Fulfilled
UCCUGGAAGAGCUUGCAUAGUAUUUUGUUA; Fulfilled
UCCUGCUACAGCUAGCAUAGUAUUUAGUUA; Fulfilled

We now examine a further sequence.
Prompt: Please check the record `UCCUGCUACACGUUGCAUAGUAUUUAGUAA` and state if its pre-steady-state target cleavage rate is at or above 0.2.
Completion: Fulfilled
